All values here come from patent US10294262B2.

Catalogue of molecules with associated melting point

Recorded results for 2 molecules are shown here.
{"SMILES STRING": "Nc1ncnc2c1c(-c1c[nH]nn1)cn2[C@@H]1O[C@H](CO)[C@@H](O)[C@H]1O", "ASSAY RESULT": "286 to 288 °C"}
{"SMILES STRING": "Nc1ncnc2c1c(-c1ncc[nH]1)cn2[C@@H]1O[C@H](CO)[C@@H](O)[C@H]1O", "ASSAY RESULT": "153 to 156 °C"}

Let's switch to this molecule now.
I would be grateful if you could share the reported melting point for `Nc1ncnc2c1c(-c1ccc[nH]1)cn2[C@@H]1O[C@H](CO)[C@@H](O)[C@H]1O` .
205 to 207 °C
